Cited source for all entries: the supplement of paper PMC9732359

assay: protein stability index of a GFP-peptide fusion (yeast GPS) (PSI 1-4); higher = more stable; sorted into four equal gates, so the index is relative within each strain; conditions: pdr5∆
Answer NOT MET if protein stability index is under 3, and MET if it is 3 or more.

SNDKFVHVQLLINLKIS [SRB8] ... NOT MET
KKIMDETPSRLLLSPDQ [ITC1] ... MET
GEKKVGSNGELFGGRHY [SWP82] ... MET

Determine whether measured protein stability index meets or exceeds 3 for ANSSITPAFGSNNTGNT [YJL041W/NSP1]
NOT MET

Determine whether measured protein stability index meets or exceeds 3 for NCNIKDFKPPYIYSHVN [SWP82]
NOT MET

Determine whether measured protein stability index meets or exceeds 3 for HANSVVALTGLLIRSKT [YML031W/NDC1]
NOT MET

Determine whether measured protein stability index meets or exceeds 3 for KVLARQQLQVLARYLKM [FAS2]
NOT MET

Determine whether measured protein stability index meets or exceeds 3 for EVRILPRQRMEEVVSND [PRP8]
NOT MET
